All values here come from patent US20230295213A1.

# experiment: Pharmacokinetic evaluation in ICR mice, intravenous
# Assay type: in vivo
# conditions: mouse; ICR male mice, 1.0 mg/kg intravenous, plasma
testReadout: AUC(0-t) (ng·h/mL)

// solved cases for AUC(0-t) follow
>>> print(df.to_string())
                                   molecule  testreadout  reading
0  O=P(O)(O)CP(=O)(O)OC[C@H]1O[C@@H](n2cnc3c(N4CCC5(CCCc6ccccc65)C4)nc(Cl)nc32)[C@@H](O)C1O (stereo partly drawn)     AUC(0-t)     6670
1  O=P(O)(O)CP(=O)(O)OC[C@H]1O[C@@H](n2cnc3c(N4CC5(Cc6ccccc6C5)C4)nc(Cl)nc32)[C@@H](O)C1O (stereo partly drawn)     AUC(0-t)    19700
2  O=P(O)(O)CP(=O)(O)OC[C@H]1O[C@@H](n2cnc3c(N4CC5(CCCc6ccccc65)C4)nc(Cl)nc32)[C@@H](O)C1O (stereo partly drawn)     AUC(0-t)     9860
3  O=P(O)(O)CP(=O)(O)OC[C@H]1O[C@@H](n2cnc3c(N4CCC5(CC4)Cc4ccccc4C5)nc(Cl)nc32)[C@@H](O)C1O (stereo partly drawn)     AUC(0-t)     7430

I = O=P(O)(O)CP(=O)(O)OC[C@H]1O[C@@H](n2cnc3c(N4CC5(CCCCCC5)c5ccccc54)nc(Cl)nc32)[C@@H](O)C1O (stereo partly drawn)
II = O=P(O)(O)CP(=O)(O)OC[C@H]1O[C@@H](n2cnc3c(N4CC5(CCCCC5)c5ccccc54)nc(Cl)nc32)[C@@H](O)C1O (stereo partly drawn)
Record comparison, field AUC(0-t): mark the lower of I and II . I would appreciate it if you answered with the label of your choice. I

---

# experiment: Pharmacokinetic evaluation in ICR mice, intravenous
# Format: in vivo
# conditions: mouse; ICR male mice, 1.0 mg/kg intravenous, plasma
testReadout: Cmax (ng/mL)

// solved cases for Cmax follow
>>> df
                                   compound  testreadout  unitannotation  reading
0  O=P(O)(O)CP(=O)(O)OC[C@H]1O[C@@H](n2cnc3c(N4CC5(CCc6ccccc65)C4)nc(Cl)nc32)[C@@H](O)C1O (some centres unmarked)         Cmax           ng/mL     8850
1  O=P(O)(O)CP(=O)(O)OC[C@H]1O[C@@H](n2cnc3c(N4CC5(Cc6ccccc6C5)C4)nc(Cl)nc32)[C@@H](O)C1O (some centres unmarked)         Cmax           ng/mL    10700
2  O=P(O)(O)CP(=O)(O)OC[C@H]1O[C@@H](n2cnc3c(N4CCC5(CC4)Cc4ccccc4C5)nc(Cl)nc32)[C@@H](O)C1O (some centres unmarked)         Cmax           ng/mL    12200

A = O=P(O)(O)CP(=O)(O)OC[C@H]1O[C@@H](n2cnc3c(N4CC5(CCCC5)c5ccccc54)nc(Cl)nc32)[C@@H](O)C1O (some centres unmarked)
B = O=P(O)(O)CP(=O)(O)OC[C@H]1O[C@@H](n2cnc3c(N4CC5(CCCCCC5)c5ccccc54)nc(Cl)nc32)[C@@H](O)C1O (some centres unmarked)
Rank A against B by their Cmax values and give the higher one. I would appreciate it if you answered with the label of your choice. A
